Assay: Cytotoxicity against human HepG2 cells assessed as cell viability at 5.1 uM after 72 hrs by WST1 assay (reference value: 100%)
Assay type: cell-based
Conditions: read-out: Activity

SMILES_STRING	viability at 72 h, 5.1 µM / %
C=C(C)[C@@H]1NC(=O)[C@H](NC)[C@H](O)c2cc(Cl)c(O)c(c2)O[C@](C)(CC)[C@@H](C(=O)N2CC=C[C@H]2C(=O)N/C(C(=O)N/C(=C/C(=O)O)C(=O)O)=C(\C)CC)NC1=O	57
C=C(C)[C@@H]1NC(=O)[C@H](N(C)C)[C@H](O)c2cc(Cl)c(O)c(c2)O[C@](C)(CC)[C@@H](C(=O)N2CC=C[C@H]2C(=O)N/C(C(=O)N/C(=C/C(=O)O)C(=O)O)=C(\C)CC)NC1=O	46
